// provenance: ChEMBL document CHEMBL1130820

tgt: Alpha-1B adrenergic receptor (Rattus norvegicus)
Sequence (P15823 whole entry): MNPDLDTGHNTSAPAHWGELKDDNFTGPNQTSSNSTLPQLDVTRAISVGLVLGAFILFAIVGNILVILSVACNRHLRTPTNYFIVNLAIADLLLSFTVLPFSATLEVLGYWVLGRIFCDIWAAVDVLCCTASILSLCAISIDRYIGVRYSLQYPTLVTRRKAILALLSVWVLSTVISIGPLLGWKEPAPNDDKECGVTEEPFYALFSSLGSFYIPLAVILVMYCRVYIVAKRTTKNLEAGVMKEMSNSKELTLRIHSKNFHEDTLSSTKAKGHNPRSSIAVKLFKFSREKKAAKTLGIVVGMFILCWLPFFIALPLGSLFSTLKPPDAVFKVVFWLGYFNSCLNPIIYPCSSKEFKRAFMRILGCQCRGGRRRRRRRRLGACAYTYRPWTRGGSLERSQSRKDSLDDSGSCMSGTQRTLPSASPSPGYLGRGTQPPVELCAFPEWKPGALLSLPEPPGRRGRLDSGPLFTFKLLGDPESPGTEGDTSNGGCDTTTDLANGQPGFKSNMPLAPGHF
assay overview: Antagonistic affinity against Alpha-1B adrenergic receptor was determined in isolated spleen tissue from rat
Assay type: functional, tissue-based
cond: read-out: pA2 (converted)
Catalogue of Kb readings, one per entry.

smiles repr	u	Kb
COc1cc2nc(NCCSSCCNC(=O)c3ccco3)nc(N)c2cc1OC	nM	115
COc1cc2nc(N(C)CCSSCCN(C)C(=O)c3ccco3)nc(N)c2cc1OC	nM	32.4
COc1ccccc1N1CCN(CCN2C(=O)CC3(CCCC3)CC2=O)CC1.Cl.Cl	nM	28.2
COc1cc2nc(N(C)CCCCCCN(C)C(=O)c3ccco3)nc(N)c2cc1OC	nM	0.145

###

tgt: 5-hydroxytryptamine receptor 1A (Homo sapiens)
Sequence (P08908 whole entry): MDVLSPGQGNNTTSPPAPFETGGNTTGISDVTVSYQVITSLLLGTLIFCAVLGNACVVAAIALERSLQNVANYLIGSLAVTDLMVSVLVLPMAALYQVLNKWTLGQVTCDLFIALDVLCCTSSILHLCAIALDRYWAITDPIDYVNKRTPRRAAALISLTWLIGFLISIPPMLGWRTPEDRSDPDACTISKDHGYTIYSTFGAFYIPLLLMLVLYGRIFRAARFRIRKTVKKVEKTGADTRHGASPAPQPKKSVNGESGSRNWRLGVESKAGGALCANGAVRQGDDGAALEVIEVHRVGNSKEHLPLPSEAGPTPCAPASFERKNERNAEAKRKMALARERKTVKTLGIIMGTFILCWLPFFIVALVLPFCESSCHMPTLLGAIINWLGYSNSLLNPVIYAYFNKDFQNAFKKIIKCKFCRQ
assay overview: Antagonistic affinity against cloned human 5-hydroxytryptamine 1A receptor
measured quantity: Ki

smiles repr	measured quantity	experimental value
COc1cc2nc(N(C)CCSSCCN(C)C(=O)c3ccco3)nc(N)c2cc1OC	Ki	> 1000 nM
COc1ccccc1N1CCN(CCN2C(=O)CC3(CCCC3)CC2=O)CC1.Cl.Cl	Ki	1.74 nM
COc1cc2nc(N(C)CCCCCCN(C)C(=O)c3ccco3)nc(N)c2cc1OC	Ki	> 1000 nM
COc1cc2nc(N3CCN(C(=O)c4ccco4)[C@H]4CCCC[C@H]43)nc(N)c2cc1OC	Ki	> 1000 nM

###

tgt: Adrenergic receptor alpha-2 (Rattus norvegicus, UniProt P22086+P19328+P22909)
assay overview: Antagonistic affinity against native rat cortex Alpha-2 adrenergic receptor
Format: functional, tissue-based
Catalogue of Log Ki readings, one per entry.

smiles repr	Log Ki
COc1ccccc1N1CCN(CCN2C(=O)CC3(CCCC3)CC2=O)CC1.Cl.Cl	-5.98
COc1cc2nc(N3CCN(C(=O)c4ccco4)[C@H]4CCCC[C@H]43)nc(N)c2cc1OC	-6.13
COc1cc2nc(N(C)CCCCCCN(C)C(=O)c3ccco3)nc(N)c2cc1OC	-7
COc1cc2nc(N(C)CCSSCCN(C)C(=O)c3ccco3)nc(N)c2cc1OC	-6.23

###

tgt: UniProt P61169
Sequence (P61169 whole entry): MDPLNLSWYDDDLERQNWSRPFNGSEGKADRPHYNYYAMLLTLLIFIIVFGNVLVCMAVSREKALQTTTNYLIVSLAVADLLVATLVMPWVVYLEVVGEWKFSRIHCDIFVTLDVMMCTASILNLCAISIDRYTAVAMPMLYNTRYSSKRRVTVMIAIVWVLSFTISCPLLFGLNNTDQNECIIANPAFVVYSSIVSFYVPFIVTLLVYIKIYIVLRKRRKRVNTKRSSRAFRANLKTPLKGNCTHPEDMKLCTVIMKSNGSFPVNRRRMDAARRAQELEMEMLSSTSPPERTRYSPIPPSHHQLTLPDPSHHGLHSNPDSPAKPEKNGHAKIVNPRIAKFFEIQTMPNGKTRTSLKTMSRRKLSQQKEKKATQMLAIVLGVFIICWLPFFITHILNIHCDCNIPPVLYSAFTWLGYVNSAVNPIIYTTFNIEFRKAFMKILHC
assay overview: Antagonistic affinity against rat striatum Dopamine receptor D2
Type: functional, tissue-based

compound	tgt	Ki
COc1cc2nc(N3CCN(C(=O)c4ccco4)[C@H]4CCCC[C@H]43)nc(N)c2cc1OC [CYCLAZOSIN]	UniProt P61169	8320 nM
COc1cc2nc(N(C)CCCCCCN(C)C(=O)c3ccco3)nc(N)c2cc1OC	UniProt P61169	2340 nM
COc1ccccc1N1CCN(CCN2C(=O)CC3(CCCC3)CC2=O)CC1.Cl.Cl	UniProt P61169	47.9 nM
COc1cc2nc(N3CCN(C(=O)c4ccco4)CC3)nc(N)c2cc1OC [PRAZOSIN]	UniProt P61169	> 10000 nM
